Test system: galium (catchweed bedstraw, Galium aparine)
Procedure Text: Test A greenhouse herbicide test, postemergence
Type: in vivo
Stated Conditions: 125 g ai/ha, 0 to 100 scale where 0 is no effect and 100 is complete control
Param threshold (70) applies to Plant response rating, Galium; output MET when value >= threshold, NOT MET when value < threshold.

| Line Notation | Answer Label |
| --- | --- |
| Cc1sc2ccc(Cl)cc2c1-c1c(OS(C)(=O)=O)c(Cl)nn(C)c1=O | MET |
| Cc1nn(C)c(=O)c(-c2cccc3ccc(C#N)cc23)c1O | MET |
| CC(=O)Oc1ccc2cccc(-c3c(OC(C)=O)c(C)nn(C)c3=O)c2c1 | NOT MET |
| Cc1ccc2ccccc2c1-c1c(O)c(Cl)nn(C)c1=O | MET |
| COc1nn(C)c(=O)c(-c2c(C)sc3ccc(Cl)cc23)c1OS(C)(=O)=O | NOT MET |
| Cc1ccc(-c2c(O)cnn(C)c2=O)c2ccccc12 | NOT MET |
| CCCC(=O)Oc1c(C)nn(C)c(=O)c1-c1c(C)sc2c(C)cc(C)cc12 | MET |
| COc1nn(C)c(=O)c(-c2c(C)sc3ccc(Cl)cc23)c1O | MET |
| C#Cc1ccc2cccc(-c3c(O)c(C)nn(C)c3=O)c2c1 | NOT MET |
| CCC(=O)Oc1c(C)nn(C)c(=O)c1-c1c(C)sc2ccc(Cl)cc12 | MET |
| CC(=O)Oc1c(C)nn(C)c(=O)c1-c1c(C)sc2cc(C)cc(C)c12 | NOT MET |
| CCC(=O)Oc1c(Cl)nn(C)c(=O)c1-c1c(C)sc2ccc(Cl)cc12 | MET |

* * *

System: barley, spring (spring barley, Hordeum vulgare)
Procedure Text: Test D controlled growth environment herbicide test, pre- and postemergence
Assay type: in vivo
Stated Conditions: Postemergence, 31 g ai/ha; scale 0 to 100 (0 no effect, 100 complete control)
Checkbox rule: Barley, Spring plant response rating lower than 5 = TRUE; Barley, Spring plant response rating not lower than 5 = FALSE.

| Line Notation | Answer Label |
| --- | --- |
| CC(=O)Oc1c(Br)nn(C)c(=O)c1-c1c(C)ccc2ccccc12 | FALSE |
| CCOC(=O)Oc1c(C)nn(C)c(=O)c1-c1c(C)sc2c(C)cc(C)cc12 | TRUE |
| CCOC(=O)Oc1c(C)nn(C)c(=O)c1-c1c(C)ccc2ccccc12 | FALSE |
| Cc1ccc2ccc(C)c(-c3c(O)c(C)nn(C)c3=O)c2c1 | FALSE |
| Cc1cc(C)c2sc(C)c(-c3c(OC(=O)OC(C)C)c(C)nn(C)c3=O)c2c1 | TRUE |

* * *

Tested on: blackgrass (Alopecurus myosuroides)
Procedure Text: Test C greenhouse herbicide test, pre- and postemergence
Format: in vivo
Stated Conditions: Postemergence, 250 g ai/ha; scale 0 to 100, 0 no effect, 100 complete control; 13 to 15 d
Checkbox rule: Plant response rating, Blackgrass lower than 60 = Criterion met; Plant response rating, Blackgrass not lower than 60 = Criterion not met.

| Compound | Answer Label |
| --- | --- |
| Cc1nn(C)c(=O)c(-c2ccc(F)c3ccccc23)c1OC(=O)CC(F)(F)F [Compound 123] | Criterion met |
| CC(=O)Oc1c(C)nn(C)c(=O)c1-c1ccc(F)c2ccccc12 [Compound 90] | Criterion met |
| COc1nn(C)c(=O)c(-c2c(C)ccc3ccccc23)c1OC(C)=O [Compound 138] | Criterion not met |
| CC(=O)Oc1c(Br)nn(C)c(=O)c1-c1c(C)ccc2ccccc12 [Compound 129] | Criterion not met |
| CCOC(=O)Oc1c(C)nn(C)c(=O)c1-c1c(C)sc2c(C)cc(C)cc12 [Compound 83] | Criterion not met |
| CC(=O)Oc1c(C)nn(C)c(=O)c1-c1c(C)oc2ccc(C)cc12 [Compound 14] | Criterion met |
| Cc1nn(C)c(=O)c(-c2c(C)sc3ccccc23)c1O [Compound 65] | Criterion met |
| Cc1cc(C)c2sc(C)c(-c3c(OC(=O)OCCCl)c(C)nn(C)c3=O)c2c1 [Compound 85] | Criterion not met |
| CC(=O)Oc1c(C)nn(C)c(=O)c1-c1c(C)cc(C)c2ccccc12 [Compound 153] | Criterion not met |
| CCOC(=O)Oc1c(C)nn(C)c(=O)c1-c1c(C)ccc2ccccc12 [Compound 73] | Criterion not met |
| CCC(=O)Oc1c(C)nn(C)c(=O)c1-c1c(C)sc2ccc(Cl)cc12 [Compound 109] | Criterion not met |
| COc1nn(C)c(=O)c(-c2c(C)ccc3ccccc23)c1OC(=O)OC(C)C [Compound 36] | Criterion met |
| CC(=O)Oc1c(C)nn(C)c(=O)c1-c1c(C)oc2c(C)cc(C)cc12 [Compound 16] | Criterion met |
| C#CCOC(=O)Oc1c(C)nn(C)c(=O)c1-c1c(C)sc2ccc(C)cc12 [Compound 87] | Criterion not met |
| Cc1nn(C)c(=O)c(-c2cc(F)cc3ccccc23)c1OS(C)(=O)=O [Compound 115] | Criterion met |
| CCOC(=O)Oc1c(C)nn(C)c(=O)c1-c1c(CC)ccc2ccccc12 [Compound 37] | Criterion not met |
| CCC(=O)Oc1c(C)nn(C)c(=O)c1-c1ccc(Br)c2ccccc12 [Compound 133] | Criterion met |
| Cc1ccc2ccccc2c1-c1c(O)cnn(C)c1=O [Compound 56] | Criterion met |
| CCC(=O)Oc1c(Cl)nn(C)c(=O)c1-c1c(C)sc2ccc(Cl)cc12 [Compound 111] | Criterion met |
| CCC(=O)Oc1c(C)nn(C)c(=O)c1-c1c(C)sc2c(C)cc(C)cc12 [Compound 28] | Criterion not met |

* * *

Tested on: oat, wild (wild oat, Avena fatua)
Procedure Text: Test D controlled growth environment herbicide test, pre- and postemergence
Type: in vivo
Stated Conditions: Preemergence, 62 g ai/ha; scale 0 to 100 (0 no effect, 100 complete control)
Quick reference: Plant response rating, Oat, Wild of the listed items.

| Compound | Plant response rating, Oat, Wild |
| --- | --- |
| COc1nn(C)c(=O)c(-c2c(C)ccc3ccccc23)c1O [Compound 54] | 75 |
| COC(=O)Oc1c(C)nn(C)c(=O)c1-c1c(C)sc2c(C)cc(C)cc12 [Compound 81] | 85 |
| CCC(=O)Oc1c(C)nn(C)c(=O)c1-c1c(C)sc2c(C)cc(C)cc12 [Compound 28] | 85 |
| CCOC(=O)Oc1c(C)nn(C)c(=O)c1-c1c(C)ccc2ccccc12 [Compound 73] | 90 |
| CC(=O)Oc1c(C)nn(C)c(=O)c1-c1c(C)sc2ccc(C)cc12 [Compound 25] | 90 |

* * *

System: canarygrass (Phalaris minor)
Procedure Text: Test D controlled growth environment herbicide test, pre- and postemergence
Type: in vivo
Stated Conditions: Postemergence, 31 g ai/ha; scale 0 to 100 (0 no effect, 100 complete control)

| Line Notation | Canarygrass plant response rating |
| --- | --- |
| CCOC(=O)Oc1c(C)nn(C)c(=O)c1-c1c(C)sc2c(C)cc(C)cc12 | 50 |
| Cc1ccc2sc(C)c(-c3c(O)c(C)nn(C)c3=O)c2c1 | 20 |
| COC(=O)Oc1c(C)nn(C)c(=O)c1-c1c(C)sc2c(C)cc(C)cc12 | 75 |
| C#CCOC(=O)Oc1c(C)nn(C)c(=O)c1-c1c(C)sc2ccc(C)cc12 | 55 |
| CC(=O)Oc1c(C)nn(C)c(=O)c1-c1c(C)cc(C)c2ccccc12 | 75 |
| Cc1cc(C)c2sc(C)c(-c3c(OC(=O)OCCCl)c(C)nn(C)c3=O)c2c1 | 75 |
| CCC(=O)Oc1c(C)nn(C)c(=O)c1-c1c(C)sc2ccc(C)cc12 | 50 |

* * *

Quick reference: Plant response rating (scale of 0 to 100), Barley, Winter of the listed items.
System: barley, winter (winter barley, Hordeum vulgare)
Procedure Text: Test D controlled growth environment herbicide test, pre- and postemergence
Format: in vivo
Stated Conditions: Preemergence, 31 g ai/ha
Property Label: Plant response rating (scale of 0 to 100), Barley, Winter

| Line Notation | Measured Value |
| --- | --- |
| Cc1cc(C)c2sc(C)c(-c3c(OC(=O)OCCCl)c(C)nn(C)c3=O)c2c1 | 0 |
| CCC(=O)Oc1c(C)nn(C)c(=O)c1-c1c(C)sc2c(C)cc(C)cc12 | 0 |
| CC(=O)Oc1c(Br)nn(C)c(=O)c1-c1c(C)ccc2ccccc12 | 0 |
| CCC(=O)Oc1c(C)nn(C)c(=O)c1-c1c(C)sc2ccc(C)cc12 | 0 |
| CCC(=O)Oc1c(C)nn(C)c(=O)c1-c1c(C)sc2ccc(Cl)cc12 | 0 |
| Cc1ccc2ccc(C)c(-c3c(O)c(C)nn(C)c3=O)c2c1 | 15 |
| Cc1ccc2ccccc2c1-c1c(O)c(C)nn(C)c1=O | 15 |
| COc1nn(C)c(=O)c(-c2c(C)ccc3ccccc23)c1OC(=O)OC(C)C | 0 |
